Target: human 5-HT1A receptor (Homo sapiens (Human), UniProt P08908)
Sequence (P08908 whole entry): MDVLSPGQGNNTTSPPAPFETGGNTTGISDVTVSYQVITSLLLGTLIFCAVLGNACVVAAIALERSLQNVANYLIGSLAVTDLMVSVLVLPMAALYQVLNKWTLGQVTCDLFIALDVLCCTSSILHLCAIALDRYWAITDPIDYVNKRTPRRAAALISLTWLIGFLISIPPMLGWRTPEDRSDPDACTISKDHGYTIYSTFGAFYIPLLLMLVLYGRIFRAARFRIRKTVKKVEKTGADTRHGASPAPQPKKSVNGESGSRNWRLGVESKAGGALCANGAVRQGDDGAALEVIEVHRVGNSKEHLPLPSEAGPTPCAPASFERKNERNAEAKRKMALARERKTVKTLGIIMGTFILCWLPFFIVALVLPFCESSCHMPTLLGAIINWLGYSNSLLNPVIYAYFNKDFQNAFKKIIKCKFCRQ
Assay: Test 1: agonistic activity for human 5-HT1A receptor (aequorin/Gα16 luminescence in CHO-K1 cell)
Assay type: cell-based
Conditions: CHO-K1; 100% = 10 μmol/L endogenous ligand
reportedProperty: Emax (%)
Provide the reading as a plain figure in %.

compound="Cc1cccc(C2CCN(CCNC(=O)C3CCOC3)CC2)n1 (centres unmarked) [Example 22]" reportedresult=25
compound="Nc1cccc(C2CCN(CCNC(=O)C3CCOCC3)CC2)n1 [Example 36]" reportedresult=38
compound="Cc1cccc(C2=CCN(CCNC(=O)C3CCC(F)(F)CC3)CC2)n1 [Example 14]" reportedresult=41

Incoming: Name the reported Emax value associated with the compound N#Cc1cccc(C2CCN(CCNC(=O)C3CCOCC3)CC2)n1 [Example 35]
Outgoing: 27

Incoming: GET /values?readout=Emax&item= CC(C)(C)C(=O)NCCN1CC=C(c2cccc(C(F)(F)F)n2)CC1 [Example 31]
Outgoing: 40

###

Target: UniProt P21917
Test: Test 2: binding activity to human D4 receptor ([3H] dopamine, CHO cell membrane)
Conditions: [3H] dopamine; read-out: D4 binding affinity (Ki value)
reportedProperty: Ki (nM)
Write the number in nM without appending the unit.

Below are worked cases with known answers.
compound="O=C(NCCN1CCC(c2cccc(C(F)(F)F)n2)CC1)C1CCCOC1 (centres unmarked)" reportedresult=109
compound=Nc1cccc(C2CCN(CCNC(=O)C3CCOCC3)CC2)n1 reportedresult=120
compound=O=C(NCCN1CCC(c2cccc(C(F)(F)F)n2)CC1)C1CCC(F)(F)CC1 reportedresult=11
compound=N#Cc1cccc(C2CCN(CCNC(=O)C3CCOCC3)CC2)n1 reportedresult=2260
compound=O=C(NCCN1CCC(c2cccc(OC(F)(F)F)n2)CC1)C1CCOCC1 reportedresult=104

Incoming: Record request: Ki value, item Cc1cccc(C2CCN(CCNC(=O)C3CCOC3)CC2)n1 (centres unmarked)
Outgoing: 2240

Incoming: # input compound: COCC1(C(=O)NCCN2CCC(c3cccc(C(F)(F)F)n3)CC2)CC1 ; wanted: its Ki
Outgoing: 43

Incoming: Entry under review: CN(C)c1cccc(C2CCN(CCNC(=O)C3CCOCC3)CC2)n1 . Reported Ki?
Outgoing: 10

Incoming: Value lookup for Ki; key = COc1cccc(C2CCN(CCNC(=O)C3CCOCC3)CC2)n1
Outgoing: 119

Incoming: # input compound: COCC(C)(C)C(=O)NCCN1CCC(c2cccc(C(F)(F)F)n2)CC1 ; wanted: its Ki
Outgoing: 101

Incoming: Suppose we examine the compound Cc1cccc(C2CCN(CCNC(=O)C3CC4CCC3O4)CC2)n1 (centres unmarked) ; what Ki value has been reported?
Outgoing: 198

###

Target: human D4 receptor (Homo sapiens (Human), UniProt P21917)
Sequence (P21917 whole entry): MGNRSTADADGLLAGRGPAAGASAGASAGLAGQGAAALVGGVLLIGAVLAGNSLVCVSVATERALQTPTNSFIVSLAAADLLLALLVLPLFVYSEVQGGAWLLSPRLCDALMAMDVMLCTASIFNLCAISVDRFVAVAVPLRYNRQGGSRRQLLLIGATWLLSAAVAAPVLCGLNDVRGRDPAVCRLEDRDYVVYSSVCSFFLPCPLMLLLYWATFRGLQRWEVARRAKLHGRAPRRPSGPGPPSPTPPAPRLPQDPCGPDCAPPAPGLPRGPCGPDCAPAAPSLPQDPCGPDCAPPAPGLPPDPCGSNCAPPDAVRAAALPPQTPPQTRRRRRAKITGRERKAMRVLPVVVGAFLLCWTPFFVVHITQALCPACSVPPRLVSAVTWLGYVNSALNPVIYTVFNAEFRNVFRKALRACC
Test: Test 2: binding activity to human D4 receptor ([3H] dopamine, CHO cell membrane)
Conditions: [3H] dopamine; read-out: D4 binding affinity (Ki value)
Text: Test 2: Evaluation of Binding Activity to Human 5-HT1A Receptor, Human D4 Receptor, and Human D2 Receptor CHO cell membrane fraction in which human 5-HT1A receptor, human D4 receptor, and human D2 receptor were expressed was purchased from PerkinElmer Co., Ltd. In the evaluation test of binding, the test compound dissolved in DMSO, each receptor membrane preparation diluted with buffer solution, and [3H] […]
reportedProperty: Ki

compound="Cc1cccc(C2CCN(CCNC(=O)C3CCCOC3)CC2)n1 (centres unmarked) [Example 15]" reportedresult="505 nM"
compound="CO[C@H]1CC[C@H](C(=O)NCCN2CCC(c3cccc(C(F)(F)F)n3)CC2)CC1 [Example 27]" reportedresult="2470 nM"
compound="Cc1cccc(C2CCN(CCNC(=O)C3CCCO3)CC2)n1 (centres unmarked) [Example 24]" reportedresult="3380 nM"
compound="CC(C)(C)C(=O)NCCN1CCC(c2cccc(C(F)(F)F)n2)CC1 [Example 9]" reportedresult="8 nM"

The record that follows has no Ki shown yet.
Incoming: Bench note: what Ki did O=C(NCCN1CCC(c2cccc(C(F)(F)F)n2)CC1)C1CCCO1 (centres unmarked) [Example 25] show?
Outgoing: 423 nM

###

Biological target: human D4 receptor (Homo sapiens (Human))
Assay: Test 1: agonistic activity for human D4 receptor (aequorin/Gα16 luminescence in CHO-K1 cell)
Type: cell-based
Settings: 100% = 10 μmol/L endogenous ligand
# binarize D4 agonistic activity Emax: threshold 60% inclusive, high side Y, low side N

Recorded results for 3 compounds are shown here.
compound="COCC(C)(C)C(=O)NCCN1CCC(c2cccc(C)n2)CC1 [Example 5]" qualitativelabel=N
compound="Cc1cccc(C2CCN(CCNC(=O)C3CC4CCC3O4)CC2)n1 (stereo not shown) [Example 3]" qualitativelabel=Y
compound="Cc1cccc(C2CCN(CCNC(=O)C3CCC(F)(F)CC3)CC2)n1 [Example 4]" qualitativelabel=Y

Incoming: Determine whether this compound has D4 agonistic activity Emax no lower than 60%: COCC1(C(=O)NCCN2CCC(c3cccc(C(F)(F)F)n3)CC2)CC1 [Example 7]
Outgoing: N

Incoming: Dear colleague, could you confirm whether Cc1cccc(C2CCN(CCNC(=O)C(C)(C)C)CC2)n1 [Example 10] has D4 agonistic activity Emax at or above 60%?
Outgoing: Y

Incoming: Confirm if D4 agonistic activity Emax reported for the compound COCC(C)(C)C(=O)NCCN1CCC(c2cccc(C(F)(F)F)n2)CC1 [Example 6] is 60% or above.
Outgoing: N

###

# key: entry, value: pKi
Target: human D2 receptor (Homo sapiens (Human))
Sequence (P14416 whole entry): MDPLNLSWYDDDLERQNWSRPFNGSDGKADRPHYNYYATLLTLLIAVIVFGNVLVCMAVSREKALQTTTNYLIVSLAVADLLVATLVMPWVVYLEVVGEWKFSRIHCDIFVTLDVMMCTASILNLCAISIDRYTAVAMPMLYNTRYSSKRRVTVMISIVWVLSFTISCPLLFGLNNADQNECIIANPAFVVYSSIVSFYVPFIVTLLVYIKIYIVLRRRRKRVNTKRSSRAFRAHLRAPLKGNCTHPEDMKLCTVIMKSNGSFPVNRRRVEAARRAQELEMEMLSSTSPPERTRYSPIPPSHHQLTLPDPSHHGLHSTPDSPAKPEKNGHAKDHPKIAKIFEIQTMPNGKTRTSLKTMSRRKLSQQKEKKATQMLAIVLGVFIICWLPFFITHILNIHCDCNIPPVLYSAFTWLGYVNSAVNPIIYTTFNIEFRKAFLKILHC
Experiment: Test 2: binding activity to human D2 receptor ([3H] spiperone, CHO cell membrane)
Settings: [3H] spiperone; read-out: D2 binding affinity (Ki value)
pKi: −log10 of the molar value.

Incoming: Find the measured pKi: item COCC1(C(=O)NCCN2CCC(c3cccc(C(F)(F)F)n3)CC2)CC1 , target or system human D2 receptor (Homo sapiens (Human)).
Outgoing: < 5.00

###

Documented Emax across a set of molecules
Target: human 5-HT1A receptor (Homo sapiens (Human), UniProt P08908)
Assay: Test 1: agonistic activity for human 5-HT1A receptor (aequorin/Gα16 luminescence in CHO-K1 cell)
Type: cell-based
Conditions: CHO-K1; 100% = 10 μmol/L endogenous ligand
Report only the number, with the unit % understood.

Solved entries:
molecule=Cc1cccc(C2=CCN(CCNC(=O)C3CCOCC3)CC2)n1 assaytarget="human 5-HT1A receptor (Homo sapiens (Human), UniProt P08908)" measureunit=% reportedresult=50
molecule=COCC(C)(C)C(=O)NCCN1CC=C(c2cccc(C)n2)CC1 assaytarget="human 5-HT1A receptor (Homo sapiens (Human), UniProt P08908)" measureunit=% reportedresult=30
molecule="O=C(NCCN1CCC(c2cccc(C(F)(F)F)n2)CC1)C1CCCO1 (stereo not drawn)" assaytarget="human 5-HT1A receptor (Homo sapiens (Human), UniProt P08908)" measureunit=% reportedresult=46
molecule=O=C(NCCN1CCC(c2cccc(C(F)(F)F)n2)CC1)C1CCC(F)(F)CC1 assaytarget="human 5-HT1A receptor (Homo sapiens (Human), UniProt P08908)" measureunit=% reportedresult=96
molecule=CO[C@H]1CC[C@H](C(=O)NCCN2CCC(c3cccc(C)n3)CC2)CC1 assaytarget="human 5-HT1A receptor (Homo sapiens (Human), UniProt P08908)" measureunit=% reportedresult=43

Incoming: Quick check: Emax of O=C(NCCN1CC=C(c2cccc(C(F)(F)F)n2)CC1)C1CCC(F)(F)CC1 ?
Outgoing: 43

Incoming: What measured Emax goes with CNc1cccc(C2CCN(CCNC(=O)C3CCOCC3)CC2)n1 ?
Outgoing: 40

Incoming: Need Emax of Cc1cccc(C2CCN(CCNC(=O)C3CCCO3)CC2)n1 (stereo not drawn) , thanks.
Outgoing: 50

Incoming: Please give the measured Emax for this molecule: O=C(NCCN1CC=C(c2cccc(C(F)(F)F)n2)CC1)C1CCOCC1
Outgoing: 65

###

Test: Test 3-2: metabolic stability test of human liver microsome (0.5 or 1.0 mg/mL)
Format: in vitro ADME
Conditions: test compound 0.1 μmol/L, 37° C., 30 minutes
Some compounds, each annotated with its measured Metabolic stability of human liver microsome.
Enter the number, and then the unit.

Incoming: # Metabolic stability of human liver microsome lookup, item Cc1cccc(C2CCN(CCNC(=O)C3CCOCC3)CC2)n1
Outgoing: 0.023 mL/min/mg protein

Incoming: // returns reported Metabolic stability of human liver microsome for input O=C(NCCN1CCC(c2cccc(C(F)(F)F)n2)CC1)C1CCOCC1
Outgoing: 0.0075 mL/min/mg protein

Incoming: Data request, read-out Metabolic stability of human liver microsome, for CC(C)(C)C(=O)NCCN1CCC(c2cccc(C(F)(F)F)n2)CC1
Outgoing: 0.016 mL/min/mg protein

Incoming: I would be grateful if you could share the reported Metabolic stability of human liver microsome for O=C(NCCN1CCC(c2cccc(C(F)(F)F)n2)CC1)C1CCC(F)(F)CC1 .
Outgoing: 0.031 mL/min/mg protein
